The measured values listed here are drawn from patent US20160264593A1.

- Procedure text: in vivo
- Applied conditions: female, Sprague-Dawley (SD), rat, in vivo, iv, 1.5 mg/kg, 100 liver concentration
Quantity name: concentration at 6 h (ng/g)

Compound	Unit abbreviation	Number
CN1CCN(C(=O)C2C3CCC(O3)C2C(=O)O)CC1 (stereo not shown)	ng/g	407

###

- Procedure text: Pharmacokinetic study of 157 (and metabolite endothal) in SD rats, iv and po; plasma, liver, brain
- Format: in vivo
- Applied conditions: female, SD, rat, in vivo, po, 1.5 mg/kg, 157 po 1.5 mg/kg; read-out: Cmax of 157 in plasma
- Protocol: The blood, liver and brain tissue samples were collected at predetermined times from rats. […] Compound were diluted shortly before use in 4% sodium bicarbonate for sterile injection (this is the standard pediatric solution of NaHCO3 with a pH of about 8.5). Compound 153 was freshly prepared by diluting the drugs shortly before use in 4% sodium bicarbonate for sterile injection (this is the standard pediatric solution of NaHCO3 with a pH of about 8.5). […]

Molecule	Unit abbreviation	Cmax
CCCCCCCOC(=O)C1C2CCC(O2)C1C(=O)N1CCN(C)CC1 (stereo not shown)	ng/mL	6.14
